- experiment-summary: Powder dissolution, USP/NF paddle method with HPLC analysis
- Type: physicochemical
- recorded-conditions: 3 min; 500 mg in 900 mL water, 37 °C, 75 rpm; replicate #1; trihydrate
- Experimental: Dissolution analysis of amoxicillin trihydrate powder samples was carried out using the USP/NF paddle method at a rotational speed of 75 rpm. Ultrapure ELGA laboratory water (900 mL) was used as dissolution medium. Media were equilibrated to 37.0±0.5° C. prior to dissolution. […] Samples were collected at 0, 1, 3, 5, 10, 15, 30, 60 and 90 min, filtered through 0.2 μm filters and analyzed by HPLC. […]
Lab note: cut-off is 80%. Strictly less in Amoxicillin released in solution #1 is TRUE. Exactly 80% or more is FALSE.

Q) For CC1(C)S[C@@H]2[C@H](NC(=O)[C@H](N)c3ccc(O)cc3)C(=O)N2[C@H]1C(=O)O.O.O.O [entry 1, amoxicillin trihydrate] , is the recorded Amoxicillin released in solution #1 below the cut-off of 80%?
A) FALSE

Q) For CC1(C)S[C@@H]2[C@H](NC(=O)[C@H](N)c3ccc(O)cc3)C(=O)N2[C@H]1C(=O)O.O.O.O [entry 4, amoxicillin trihydrate] , is the recorded Amoxicillin released in solution #1 below the cut-off of 80%?
A) TRUE

Q) Amoxicillin released in solution #1 under 80%? Item: CC1(C)S[C@@H]2[C@H](NC(=O)[C@H](N)c3ccc(O)cc3)C(=O)N2[C@H]1C(=O)O.O.O.O [entry 2, amoxicillin trihydrate]
A) FALSE

Q) Record CC1(C)S[C@@H]2[C@H](NC(=O)[C@H](N)c3ccc(O)cc3)C(=O)N2[C@H]1C(=O)O.O.O.O [entry 3, amoxicillin trihydrate] : is its Amoxicillin released in solution #1 strictly below 80%?
A) FALSE

Q) Report whether reported Amoxicillin released in solution #1 is lower than 80% (strictly) for CC1(C)S[C@@H]2[C@H](NC(=O)[C@H](N)c3ccc(O)cc3)C(=O)N2[C@H]1C(=O)O.O.O.O [entry 6, amoxicillin trihydrate]
A) FALSE

====

- experiment-summary: Powder dissolution, USP/NF paddle method with HPLC analysis
- Type: physicochemical
- recorded-conditions: 3 min; 500 mg in 900 mL water, 37 °C, 75 rpm; replicate #3; trihydrate
measure: Amoxicillin released in solution #3 (%)
Output spec: scalar in %, unitless text.

Q) Dear colleague, please send me the reported Amoxicillin released in solution #3 for CC1(C)S[C@@H]2[C@H](NC(=O)[C@H](N)c3ccc(O)cc3)C(=O)N2[C@H]1C(=O)O.O.O.O [entry 6, amoxicillin trihydrate] when you can.
A) 79.68

Q) Note down Amoxicillin released in solution #3 recorded for CC1(C)S[C@@H]2[C@H](NC(=O)[C@H](N)c3ccc(O)cc3)C(=O)N2[C@H]1C(=O)O.O.O.O [entry 4, amoxicillin trihydrate]
A) 78.12

Q) Provide measured Amoxicillin released in solution #3 value, entry: CC1(C)S[C@@H]2[C@H](NC(=O)[C@H](N)c3ccc(O)cc3)C(=O)N2[C@H]1C(=O)O.O.O.O [entry 5, amoxicillin trihydrate]
A) 75.20

Q) Dear colleague, please send me the reported Amoxicillin released in solution #3 for CC1(C)S[C@@H]2[C@H](NC(=O)[C@H](N)c3ccc(O)cc3)C(=O)N2[C@H]1C(=O)O.O.O.O [entry 1, amoxicillin trihydrate] when you can.
A) 99.01

Q) Give me measured Amoxicillin released in solution #3, please, for this molecule: CC1(C)S[C@@H]2[C@H](NC(=O)[C@H](N)c3ccc(O)cc3)C(=O)N2[C@H]1C(=O)O.O.O.O [entry 3, amoxicillin trihydrate]
A) 98.77

Q) Return Amoxicillin released in solution #3 (reported value) for this molecule: CC1(C)S[C@@H]2[C@H](NC(=O)[C@H](N)c3ccc(O)cc3)C(=O)N2[C@H]1C(=O)O.O.O.O [entry 2, amoxicillin trihydrate]
A) 99.60

====

Give measured Amoxicillin released in solution Mean for each item. Keep answers brief.
- experiment-summary: Powder dissolution, USP/NF paddle method with HPLC analysis
- Assay type: physicochemical
- recorded-conditions: 30 min; 500 mg in 900 mL water, 37 °C, 75 rpm; mean of 3; trihydrate
Give your result in % as a bare value.

Q) Report measured Amoxicillin released in solution Mean; entry is CC1(C)S[C@@H]2[C@H](NC(=O)[C@H](N)c3ccc(O)cc3)C(=O)N2[C@H]1C(=O)O.O.O.O [entry 5, amoxicillin trihydrate]
A) 96.72

Q) Give Amoxicillin released in solution Mean for CC1(C)S[C@@H]2[C@H](NC(=O)[C@H](N)c3ccc(O)cc3)C(=O)N2[C@H]1C(=O)O.O.O.O [entry 1, amoxicillin trihydrate]
A) 99.31

Q) For CC1(C)S[C@@H]2[C@H](NC(=O)[C@H](N)c3ccc(O)cc3)C(=O)N2[C@H]1C(=O)O.O.O.O [entry 6, amoxicillin trihydrate] , write its Amoxicillin released in solution Mean.
A) 96.85

====

- experiment-summary: Particle size distribution by laser diffraction (Malvern)
- Type: physicochemical
- recorded-conditions: trihydrate
- Method: Particle size distribution values D10, D50, D90 and D100 were determined using laser diffraction applying Malvern equipment. A suitable apparatus for determining D10, D50, D90 and D100 is a Malvern particle sizer 2600 C or a Malvern Zeta Sizer. […]
measure: Average Particle Size D10 (μm)
State the answer as a number, implicitly in μm.

Q) Consider the molecule CC1(C)S[C@@H]2[C@H](NC(=O)[C@H](N)c3ccc(O)cc3)C(=O)N2[C@H]1C(=O)O.O.O.O [entry 5, amoxicillin trihydrate] and give its recorded Average Particle Size D10.
A) 1.9

Q) Identify measured Average Particle Size D10 corresponding to CC1(C)S[C@@H]2[C@H](NC(=O)[C@H](N)c3ccc(O)cc3)C(=O)N2[C@H]1C(=O)O.O.O.O [entry 2, amoxicillin trihydrate]
A) 13.5

Q) Report measured Average Particle Size D10; entry is CC1(C)S[C@@H]2[C@H](NC(=O)[C@H](N)c3ccc(O)cc3)C(=O)N2[C@H]1C(=O)O.O.O.O [entry 6, amoxicillin trihydrate]
A) 1.9

Q) Name the recorded Average Particle Size D10 of the item CC1(C)S[C@@H]2[C@H](NC(=O)[C@H](N)c3ccc(O)cc3)C(=O)N2[C@H]1C(=O)O.O.O.O [entry 1, amoxicillin trihydrate] in your answer.
A) 12.3

Q) Specify Average Particle Size D10 for CC1(C)S[C@@H]2[C@H](NC(=O)[C@H](N)c3ccc(O)cc3)C(=O)N2[C@H]1C(=O)O.O.O.O [entry 4, amoxicillin trihydrate] and stop.
A) 1.9

Q) Report Average Particle Size D10, nothing else, for this molecule: CC1(C)S[C@@H]2[C@H](NC(=O)[C@H](N)c3ccc(O)cc3)C(=O)N2[C@H]1C(=O)O.O.O.O [entry 3, amoxicillin trihydrate]
A) 13.1

====

Provide the recorded Amoxicillin released in solution #1 for the entries that follow.
- experiment-summary: Powder dissolution, USP/NF paddle method with HPLC analysis
- Format: physicochemical
- recorded-conditions: 15 min; 500 mg in 900 mL water, 37 °C, 75 rpm; replicate #1; trihydrate

Q) Provide one value: measured Amoxicillin released in solution #1 of CC1(C)S[C@@H]2[C@H](NC(=O)[C@H](N)c3ccc(O)cc3)C(=O)N2[C@H]1C(=O)O.O.O.O [entry 2, amoxicillin trihydrate]
A) 99.51%

Q) Return reported Amoxicillin released in solution #1. Input compound: CC1(C)S[C@@H]2[C@H](NC(=O)[C@H](N)c3ccc(O)cc3)C(=O)N2[C@H]1C(=O)O.O.O.O [entry 1, amoxicillin trihydrate]
A) 99.28%

Q) Give the measured Amoxicillin released in solution #1 for CC1(C)S[C@@H]2[C@H](NC(=O)[C@H](N)c3ccc(O)cc3)C(=O)N2[C@H]1C(=O)O.O.O.O [entry 6, amoxicillin trihydrate]
A) 87.94%

====

- experiment-summary: Powder dissolution, USP/NF paddle method with HPLC analysis
- Format: physicochemical
- recorded-conditions: 10 min; 500 mg in 900 mL water, 37 °C, 75 rpm; replicate #1; trihydrate
I'd be grateful if you could share measured Amoxicillin released in solution #1 for these entries.
Answer format: numeric, % implied, no suffix.

Q) Tell me Amoxicillin released in solution #1 reported for CC1(C)S[C@@H]2[C@H](NC(=O)[C@H](N)c3ccc(O)cc3)C(=O)N2[C@H]1C(=O)O.O.O.O [entry 5, amoxicillin trihydrate]
A) 89.18

Q) Tell me measured Amoxicillin released in solution #1 for CC1(C)S[C@@H]2[C@H](NC(=O)[C@H](N)c3ccc(O)cc3)C(=O)N2[C@H]1C(=O)O.O.O.O [entry 6, amoxicillin trihydrate] please.
A) 85.63

Q) Consider the compound CC1(C)S[C@@H]2[C@H](NC(=O)[C@H](N)c3ccc(O)cc3)C(=O)N2[C@H]1C(=O)O.O.O.O [entry 2, amoxicillin trihydrate] . State its measured Amoxicillin released in solution #1.
A) 99.66

Q) Return Amoxicillin released in solution #1 (reported value) for this compound: CC1(C)S[C@@H]2[C@H](NC(=O)[C@H](N)c3ccc(O)cc3)C(=O)N2[C@H]1C(=O)O.O.O.O [entry 3, amoxicillin trihydrate]
A) 99.06

Q) Respond only with Amoxicillin released in solution #1 recorded for CC1(C)S[C@@H]2[C@H](NC(=O)[C@H](N)c3ccc(O)cc3)C(=O)N2[C@H]1C(=O)O.O.O.O [entry 1, amoxicillin trihydrate]
A) 98.65

Q) # return recorded Amoxicillin released in solution #1 for entry CC1(C)S[C@@H]2[C@H](NC(=O)[C@H](N)c3ccc(O)cc3)C(=O)N2[C@H]1C(=O)O.O.O.O [entry 4, amoxicillin trihydrate]
A) 88.15
